Every entry's value here was drawn from patent US20210253575A1.

Each item that follows carries a reported IC50.
# TARGET_DESC: human TLR7 (Homo sapiens, UniProt Q9NYK1)
# Sequence (Q9NYK1 27-1049): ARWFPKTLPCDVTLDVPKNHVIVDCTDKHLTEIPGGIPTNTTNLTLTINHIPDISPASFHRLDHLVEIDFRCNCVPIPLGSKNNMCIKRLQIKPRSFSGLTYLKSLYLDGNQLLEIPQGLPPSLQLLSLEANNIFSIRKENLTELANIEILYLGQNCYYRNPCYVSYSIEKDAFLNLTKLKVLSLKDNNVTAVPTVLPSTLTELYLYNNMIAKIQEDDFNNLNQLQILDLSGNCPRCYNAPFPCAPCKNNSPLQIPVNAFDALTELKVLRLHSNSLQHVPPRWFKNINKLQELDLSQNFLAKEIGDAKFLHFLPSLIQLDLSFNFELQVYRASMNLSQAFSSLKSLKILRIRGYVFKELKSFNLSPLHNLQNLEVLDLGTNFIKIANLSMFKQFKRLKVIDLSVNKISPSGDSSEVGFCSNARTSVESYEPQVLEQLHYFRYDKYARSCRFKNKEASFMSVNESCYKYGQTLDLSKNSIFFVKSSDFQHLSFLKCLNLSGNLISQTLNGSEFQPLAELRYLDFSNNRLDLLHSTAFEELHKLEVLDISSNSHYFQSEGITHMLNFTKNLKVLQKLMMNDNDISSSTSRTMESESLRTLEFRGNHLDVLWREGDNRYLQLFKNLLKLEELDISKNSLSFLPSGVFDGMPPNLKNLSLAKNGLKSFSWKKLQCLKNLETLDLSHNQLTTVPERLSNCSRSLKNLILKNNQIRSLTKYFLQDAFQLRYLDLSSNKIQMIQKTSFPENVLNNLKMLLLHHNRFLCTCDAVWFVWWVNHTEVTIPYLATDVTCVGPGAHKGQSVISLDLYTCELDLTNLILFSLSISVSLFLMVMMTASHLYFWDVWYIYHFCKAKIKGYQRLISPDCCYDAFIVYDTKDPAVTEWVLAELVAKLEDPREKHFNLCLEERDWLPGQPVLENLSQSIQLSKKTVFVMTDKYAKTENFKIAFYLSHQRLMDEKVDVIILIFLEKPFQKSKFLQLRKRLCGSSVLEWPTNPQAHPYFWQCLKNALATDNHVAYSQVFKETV
# MEASUREMENT_DESCRIPTION: HEK293-Blue-hTLR-7 cells assay (SEAP reporter, R848 stimulation)
# CONDITION_SUMMARY: HEK293-Blue-hTLR7 cells, R848 ligand, 20 hrs incubation
Your answer is read as nM, so omit the unit and give the number.

N#Cc1ccc(N2CC(CN3CCC(N4CCCCC4)CC3)C3(CC3)C2)c2nccnc12 (stereo not shown) ... 74
N#Cc1ccc(N2C[C@H](CN3CCC(N4CCNCC4)CC3)[C@@H](C(F)(F)F)C2)c2cccnc12 ... 39
CC1(CN)CCN(C[C@H]2CN(c3ccc(C#N)c4nccnc34)C[C@@H]2C(F)(F)F)C1 (stereo partly shown) ... 83

Let us move to another entry and its IC50.
[ask] GET /values?readout=IC50&item= CC[C@@H]1CN(c2ccc(C#N)c3ncccc23)C[C@H]1CN1CCC2(CCNCC2)CC1 (relative stereo)
[reply] 107
